Values were extracted from ChEMBL document CHEMBL1153334.

Experiment notes: Metabolic stability in human plasma assessed as half life after 360 mins
Type: ADME, cell-free
Value type: half-life (h)
Numbers only; they are read as h.

q: Data request, read-out half-life, for COC(=O)/C=C/[C@H](CC(C)C)NC(=O)CC[C@H](NC(=O)[C@H](CC(C)C)NC(=O)[C@H](CC(C)C)C(=O)NC(=O)[C@@H](N)C(C)C)C(N)=O
a: 1.96

q: Dear colleague, I am looking for the recorded half-life of the following compound: COC(=O)/C=C/[C@H](CC(C)C)NC(=O)CC[C@H](NC(=O)[C@H](CC(C)C)NC(=O)[C@H](CC(C)C)C(=O)NC(=O)CN)C(N)=O
a: 0.808

q: Find the recorded half-life belonging to COC(=O)/C=C/[C@H](CC(C)C)NC(=O)CC[C@H](NC(=O)[C@H](CC(C)C)NC(=O)[C@H](CC(C)C)C(=O)NC(=O)[C@@H](N)CO)C(N)=O and report it.
a: 1.43

q: Quick one: half-life of COC(=O)/C=C/[C@H](CC(C)C)NC(=O)CC[C@H](NC(=O)[C@H](CC(C)C)NC(=O)[C@H](CC(C)C)C(=O)NC(=O)[C@H](C)N)C(N)=O ?
a: 1.22

====

Experiment notes: Metabolic stability in human plasma assessed as half life after 360 mins
Type: ADME, cell-free
Would you mind telling me the reported half-life of each entry?

q: // half-life lookup, key: COC(=O)/C=C/[C@H](CC(C)C)NC(=O)CC[C@@H]1NC(=O)[C@H](CC(C)C)NC(=O)[C@H](CC(C)C)C(=O)NC(=O)CNC1=O
a: > 6 h

q: GET /values?readout=half-life&item= COC(=O)/C=C/[C@H](CC(C)C)NC(=O)CC[C@@H]1NC(=O)[C@H](CC(C)C)NC(=O)[C@H](CC(C)C)C(=O)NC(=O)[C@H](CO)NC1=O
a: > 6 h

q: Using the record for COC(=O)/C=C/[C@H](CC(C)C)NC(=O)CC[C@@H]1NC(=O)[C@H](CC(C)C)NC(=O)[C@H](CC(C)C)C(=O)NC(=O)[C@H](C)NC1=O , report its half-life.
a: > 6 h

q: # half-life lookup, item COC(=O)/C=C/[C@H](CC(C)C)NC(=O)CC[C@@H]1NC(=O)[C@H](CC(C)C)NC(=O)[C@H](CC(C)C)C(=O)NC(=O)[C@H](C(C)C)NC1=O
a: > 6 h
